# reported IC50; entries follow
STUDY SYSTEM: SARS-CoV-2 3CL protease (Severe acute respiratory syndrome coronavirus 2)
MEASUREMENT NOTES: Inhibitory activity test against SARS-CoV-2 3CL proteases
Assay type: biochemical
CONDITION LABEL: read-out: IC50 (50% SARS-CoV-2 3CL protease inhibitory concentration)

- COc1nc(N2CC[C@@H](F)C2)cc2c1c(=O)n(Cc1ncn(C)n1)c(=O)n2-c1cc(C)c(F)c(Cl)c1 [Compound I-0805]: < 100 nM
- COc1cc(-c2cc(S(C)(=N)=O)ccc2Cl)cc2c1c(=O)n(Cc1ncn(C)n1)c(=O)n2Cc1cc(F)c(F)c(F)c1 (stereo not shown) [Compound I-0207]: 23 nM
- COc1nc(N2CCC(N(C)C)C2)cc2c1c(=O)n(-c1cncc(Cl)c1)c(=O)n2-c1ccc(F)c(Cl)c1 (stereo not shown) [Compound I-1022]: < 100 nM
- COc1nc(NCC(F)(F)F)cc2c1c(=O)n(-c1cnc3cc(F)ccn13)c(=O)n2-c1ccc(F)c(Cl)c1 [Compound I-1041]: < 100 nM
- COc1nc(N2CC[C@@H](NC(C)=O)C2)cc2c1c(=O)n(-c1cnc3cc(F)ccn13)c(=O)n2-c1ccc(F)c(Cl)c1 [Compound I-1031]: < 100 nM

Input line: What value of IC50 has been reported for the following compound? COc1cc(-c2cc(C(=O)N3CCOCC3)ccc2Cl)cc2c1c(=O)n(-c1cncc(C)c1)c(=O)n2Cc1ccc(F)c(C#N)c1 [Compound I-0209]
Output line: < 100 nM

Input line: Another compound to look at: Cn1cnc(Cn2c(=O)c3ncc(-c4cc5c(cc4Cl)NC(=O)C5)cc3n(Cc3cc(F)c(F)c(Cl)c3)c2=O)n1 [Compound I-0121]
Output line: < 100 nM

Input line: COc1cc(-c2cc3cn[nH]c3cc2Cl)cc2c1c(=O)n(-c1cncc(C)c1)c(=O)n2Cc1cc(C#N)ccc1Cl [Compound I-0170] , same question.
Output line: < 100 nM

Input line: Would you kindly repeat that for COc1cc(-c2cc(CN=S(C)(C)=O)ccc2Cl)cc2c1c(=O)n(Cc1ncn(C)n1)c(=O)n2Cc1cc(F)c(F)c(F)c1 [Compound I-0363] ?
Output line: 35 nM

Input line: Moving on to CCc1nc(N2CCC(F)(F)C2)cc2c1c(=O)n(-c1cncc(Cl)c1)c(=O)n2-c1ccc(F)c(F)c1 [Compound I-1023]
Output line: < 100 nM

Input line: Quick one: Cn1cnc(Cn2c(=O)c3c4nc[nH]c4c(-c4cc(C#N)ccc4Cl)cc3n(Cc3cc(F)c(F)c(F)c3)c2=O)n1 [Compound I-0712]
Output line: 100 to 1000 nM

Input line: Follow-up item: COc1cc(-c2cc(C(=O)N(C)C)ccc2Cl)cc2c1c(=O)n(-c1cncc(C)c1)c(=O)n2Cc1ccc(F)c(C#N)c1 [Compound I-0200]
Output line: < 100 nM

Input line: Note, next up: COc1nc(N2CC[C@@H](OC)C2)cc2c1c(=O)n(-c1cncc(Cl)c1)c(=O)n2-c1ccc(F)c(Cl)c1 [Compound I-0744]
Output line: 1.4 nM

Input line: Similarly, [2H]C([2H])([2H])O[C@@H]1CCN(c2cc3c(c(OC)n2)c(=O)n(-c2cc(C)cnn2)c(=O)n3-c2ccc(F)c(Cl)c2)C1 [Compound I-0972] ?
Output line: < 100 nM

Input line: Proceed to COc1cc(-c2cc(CC(=O)N(C)C)ccc2Cl)cc2c1c(=O)n(-c1cncc(Cl)c1)c(=O)n2Cc1cc(Cl)ccc1C [Compound I-0205]
Output line: < 100 nM

Input line: Moving on to COc1cc(-c2cc(CC(=O)NCCN(C)C)ccc2Cl)cc2c1c(=O)n(-c1cncc(Cl)c1)c(=O)n2Cc1cc(Cl)ccc1C [Compound I-0189]
Output line: 7.1 nM

Input line: Also need Cn1cnc(Cn2c(=O)c3c4c(c(-c5cnccc5Cl)cc3n(Cc3cc(F)c(F)c(Cl)c3)c2=O)CCO4)n1 [Compound I-0563] , thanks.
Output line: < 100 nM

Input line: Would you mind doing O=C1Cc2cc(-c3cc(F)c4c(=O)n(-c5cncc(Cl)c5)c(=O)n(Cc5cc(F)c(F)c(F)c5)c4c3)c(Cl)cc2N1 [Compound I-0071] as well?
Output line: < 100 nM

Input line: Another compound to check: COc1nc2c(=O)n(Cc3ncn(C)n3)c(=O)n(Cc3cc(F)c(F)c(F)c3)c2cc1-c1cc(C#N)ccc1Cl [Compound I-0516]
Output line: 15 nM

Input line: # iterate: COc1nc(N2CCC(F)(F)C2)cc2c1c(=O)n(-c1cncc(C#N)c1)c(=O)n2-c1ccc(F)c(F)c1 [Compound I-1057]
Output line: < 100 nM

Input line: Moving on to COc1cc(N2C[C@H]3C[C@@H]2CN3)cc2c1c(=O)n(-c1cncc(Cl)c1)c(=O)n2Cc1cc(F)c(F)c(F)c1 [Compound I-0396]
Output line: 1.3 nM

Input line: Quick one: COc1nc(N2CC[C@@H](C#N)C2)cc2c1c(=O)n(-c1cncc(C#N)c1)c(=O)n2-c1ccc(F)c(Cl)c1 [Compound I-0939]
Output line: < 100 nM

Input line: Next entry: O=c1c2c(=O)n(-c3cnc4cc(F)ccn34)c(=O)n(-c3ccc(F)c(Cl)c3)c2cc2n1CC[C@@H]1CCCN21 [Compound I-0955]
Output line: 3.1 nM

Input line: Same for COc1cc(-c2cc(C#N)ccc2Br)cc2c1c(=O)n(Cc1ncn(C)n1)c(=O)n2Cc1cc(F)c(F)c(F)c1 [Compound I-0891]
Output line: 10 nM

Input line: Queued: COc1cc(-c2cc3c(cc2Cl)NC(=O)C3)cc2c1c(=O)n(-c1cncc(Cl)c1)c(=O)n2Cc1ccc(F)c(C#N)c1 [Compound I-0028]
Output line: 7.5 nM
